protocolText: Half life in CD1 mouse at 5 mg/kg, iv by LCMS/MS analysis
Assay type: ADME, organism-based
Set-up: dose 5 mg/kg, route intravenous
testContext: in vivo
measuredAttribute: half-life (h)

| compound | unitsOfMeasure | valueReported |
| --- | --- | --- |
| CC(C)=CCC12OC[C@@H]3[C@@H](CN4CCN(C)CC4)[C@@H](C=C4C(=O)c5c(O)cccc5O[C@]431)C2=O | h | 4.34 |
| CC(C)=CCC[C@]1(C)C=Cc2c(O)c3c(c(CC=C(C)C)c2O1)O[C@]12C(=C[C@@H]4C[C@H]1C(C)(C)O[C@@]2(C/C=C(/C)C(=O)O)C4=O)C3=O [GAMBOGIC ACID] | h | 5.06 |
| CC(C)=CCC12OC(C)(C)[C@@H]3C[C@@H](C=C4C(=O)c5c(O)cccc5O[C@]431)C2=O | h | 1.41 |
| CC(C)=CCc1c(O)cc(O)c2c1O[C@@]13C(=C[C@H]4C(=O)C1(CC=C(C)C)OC[C@@H]3[C@H]4CN1CCN(c3ccccc3)CC1)C2=O | h | 1.6 |
